The values you see were collected from patent US20040224958A1.

Here the recorded pIC50 is given for each entry.
measured-on: cdk2/cyclinA (Homo sapiens, UniProt P24941)
protocol: Cyclin-Dependent Kinase Assay cdk2/cyclinA
condition-context: cdk2/A IC50
Kindly note that pIC50 refers to -log10 of the concentration in mol/L and answer with the value alone.

{"columns": ["compound", "measured-on", "pIC50"],
 "data": [
  ["CCC(C)n1c(=O)ccc2cnc(Nc3ccc(F)c(Cl)c3)nc21 (centres unmarked) [Example 460]", "cdk2/cyclinA (Homo sapiens, UniProt P24941)", 6.59],
  ["CCC(C)n1c(=O)ccc2cnc(Nc3ccccc3)nc21 (centres unmarked) [Example 446]", "cdk2/cyclinA (Homo sapiens, UniProt P24941)", 6.67],
  ["CCC(CC)n1c(=O)ccc2cnc(Nc3ccc(C(F)(F)F)cc3)nc21 [Example 526]", "cdk2/cyclinA (Homo sapiens, UniProt P24941)", 6.80],
  ["O=c1ccc2cnc(Nc3ccc4c(c3)CCC4)nc2n1CC1CC1 [Example 587]", "cdk2/cyclinA (Homo sapiens, UniProt P24941)", 6.36]
]}

Request: Consider the compound CCC(CC)n1c(=O)ccc2cnc(Nc3ccc4[nH]c(=O)[nH]c4c3)nc21 [Example 493] and give its measured pIC50.
Response: 7.30

----------
measured-on: cdk2/cyclinE (Homo sapiens, UniProt P24941)
protocol: Cyclin-Dependent Kinase Assay cdk2/cyclinE
condition-context: cdk2/E IC50
pIC50: −log10 of the molar value.
Dear colleague, classification is by pIC50, with ranges listed here: low (below 6), medium (6 to below 7), high (7 or more)

Record excerpt, results attached:
{"columns": ["molecule", "assigned-label"],
 "data": [
  ["CCCn1c(=O)ccc2cnc(Nc3cccc(C(F)(F)F)c3)nc21 [Example 313]", "medium"],
  ["Cc1cc(Nc2ncc3ccc(=O)n(C(C)C)c3n2)cc(C)c1O [Example 441]", "medium"]
]}

Request: Place this molecule in its band: CCCCn1c(=O)ccc2cnc(Nc3ccc4[nH]nnc4c3)nc21 [Example 380]
Response: high

Request: Place this molecule in its band: CCC(C)n1c(=O)ccc2cnc(Nc3ccc(C)c(C)c3)nc21 (stereo not drawn) [Example 476]
Response: medium

Request: Place this molecule in its band: CC(=O)Nc1c(F)cc(Nc2ncc3ccc(=O)n(CC4CC4)c3n2)cc1Cl [Example 579]
Response: low

----------
measured-on: cdk2/cyclinA (Homo sapiens)
protocol: Cyclin-Dependent Kinase Assay cdk2/cyclinA
condition-context: cdk2/A IC50
pIC50: −log10 of the molar value.
Decision: pIC50 >= 6 yields YES, all other cases yield NO.

Record excerpt, results attached:
{"columns": ["molecule", "assigned-label"],
 "data": [
  ["CC(C)n1c(=O)ccc2cnc(Nc3cccc([N+](=O)[O-])c3)nc21", "YES"],
  ["CCC(C)n1c(=O)ccc2cnc(Nc3cc(OC)cc(C(F)(F)F)c3)nc21 (stereo not shown)", "NO"],
  ["CCCCn1c(=O)ccc2cnc(Nc3ccc(OC)c(Cl)c3)nc21", "YES"],
  ["CC(C)n1c(=O)ccc2cnc(Nc3ccc4cn[nH]c4c3)nc21", "YES"],
  ["O=c1ccc2cnc(Nc3cc(F)cc(F)c3)nc2n1C1CCCC1", "YES"],
  ["CCCn1c(=O)ccc2cnc(Nc3cc([N+](=O)[O-])ccc3F)nc21", "NO"],
  ["CCC(C)n1c(=O)ccc2cnc(Nc3cc(F)cc(F)c3)nc21 (stereo not shown)", "YES"],
  ["CCCCn1c(=O)ccc2cnc(Nc3cc(Cl)c(O)c(Cl)c3)nc21", "YES"]
]}

Request: Determine whether measured pIC50 meets or exceeds 6 for CCC(C)n1c(=O)ccc2cnc(Nc3cccc(S(N)(=O)=O)c3)nc21 (stereo not shown)
Response: YES

Request: Determine whether measured pIC50 meets or exceeds 6 for `CCCCn1c(=O)ccc2cnc(Nc3ccc(C#N)c(NC(C)=O)c3)nc21`
Response: YES

Request: Determine whether measured pIC50 meets or exceeds 6 for `CCCn1c(=O)ccc2cnc(Nc3cc(C)cc(C)c3)nc21`
Response: YES

Request: Determine whether measured pIC50 meets or exceeds 6 for `NS(=O)(=O)c1ccc(Nc2ncc3ccc(=O)n(CC4CC4)c3n2)cc1`
Response: YES

Request: Determine whether measured pIC50 meets or exceeds 6 for `CCC(CC)n1c(=O)ccc2cnc(Nc3ccc(Br)c(C(F)(F)F)c3)nc21`
Response: NO

Request: Determine whether measured pIC50 meets or exceeds 6 for `COc1cc(Nc2ncc3ccc(=O)n(C4CCCC4)c3n2)cc(C(F)(F)F)c1`
Response: NO

Request: Determine whether measured pIC50 meets or exceeds 6 for `CCCCn1c(=O)ccc2cnc(Nc3ccc4[nH]nnc4c3)nc21`
Response: YES

Request: Determine whether measured pIC50 meets or exceeds 6 for CCC(C)n1c(=O)ccc2cnc(Nc3ccc(C#N)cc3)nc21 (stereo not shown)
Response: YES

Request: Determine whether measured pIC50 meets or exceeds 6 for `CCCn1c(=O)ccc2cnc(Nc3ccc(C)c(Cl)c3)nc21`
Response: YES

Request: Determine whether measured pIC50 meets or exceeds 6 for `CC(C)n1c(=O)ccc2cnc(Nc3ccc4[nH]nnc4c3)nc21`
Response: YES

----------
Here the recorded IC50 is given for each entry.
measured-on: cdk2/cyclinE (Homo sapiens)
protocol: Cyclin-Dependent Kinase Assay cdk2/cyclinE
condition-context: cdk2/E IC50

Before answering, review these 3 worked examples.
{"columns": ["compound", "IC50"],
 "data": [
  ["O=c1ccc2cnc(Nc3ccc(O)cc3F)nc2n1CC(F)(F)F", "1300 nM"],
  ["Cc1ccc(Nc2ncc3ccc(=O)n(C4CCCC4)c3n2)cc1Cl", "140 nM"],
  ["CCCn1c(=O)ccc2cnc(Nc3ccc(C)c(Cl)c3)nc21", "120 nM"]
]}

Request: What measured IC50 is associated with CCC(C)n1c(=O)ccc2cnc(Nc3ccc(OC)cc3)nc21 (stereo not shown) on cdk2/cyclinE (Homo sapiens)?
Response: 463 nM

Request: What measured IC50 is associated with `CCCn1c(=O)ccc2cnc(Nc3cc(Cl)cc(Cl)c3)nc21` on cdk2/cyclinE (Homo sapiens)?
Response: 161 nM

Request: What measured IC50 is associated with `CCCn1c(=O)ccc2cnc(Nc3ccc(C(F)(F)F)cc3)nc21` on cdk2/cyclinE (Homo sapiens)?
Response: 440 nM

Request: What measured IC50 is associated with `Cn1c(=O)ccc2cnc(Nc3ccc(O)c(Cl)c3)nc21` on cdk2/cyclinE (Homo sapiens)?
Response: 3800 nM

Request: What measured IC50 is associated with `CCC(CC)n1c(=O)ccc2cnc(Nc3ccc(C)c(NS(C)(=O)=O)c3)nc21` on cdk2/cyclinE (Homo sapiens)?
Response: 140 nM

Request: What measured IC50 is associated with CCC(C)n1c(=O)ccc2cnc(Nc3ccc(I)c(Cl)c3)nc21 (stereo not shown) on cdk2/cyclinE (Homo sapiens)?
Response: 130 nM

Request: What measured IC50 is associated with `CCC(CC)n1c(=O)ccc2cnc(Nc3ccc4[nH]c(=O)[nH]c4c3)nc21` on cdk2/cyclinE (Homo sapiens)?
Response: 12 nM

Request: What measured IC50 is associated with CCC(C)n1c(=O)ccc2cnc(Nc3ccc(NC(=O)OC(C)(C)C)cc3)nc21 (stereo not shown) on cdk2/cyclinE (Homo sapiens)?
Response: 130 nM

Request: What measured IC50 is associated with CCC(C)n1c(=O)ccc2cnc(Nc3ccc(O)c(Cl)c3)nc21 (stereo not shown) on cdk2/cyclinE (Homo sapiens)?
Response: 22 nM

Request: What measured IC50 is associated with `CCCCn1c(=O)ccc2cnc(Nc3cc(OC)cc(C(F)(F)F)c3)nc21` on cdk2/cyclinE (Homo sapiens)?
Response: 300 nM

Request: What measured IC50 is associated with `CCCCn1c(=O)ccc2cnc(Nc3cc(Cl)cc(Cl)c3)nc21` on cdk2/cyclinE (Homo sapiens)?
Response: 65 nM

Request: What measured IC50 is associated with `CCCn1c(=O)ccc2cnc(Nc3ccc4[nH]nnc4c3)nc21` on cdk2/cyclinE (Homo sapiens)?
Response: 38.7 nM

Request: What measured IC50 is associated with CCC(C)n1c(=O)ccc2cnc(Nc3ccc4[nH]ccc4c3)nc21 (stereo not shown) on cdk2/cyclinE (Homo sapiens)?
Response: 60.7 nM

Request: What measured IC50 is associated with `CCCCn1c(=O)ccc2cnc(Nc3ccc(F)c(F)c3)nc21` on cdk2/cyclinE (Homo sapiens)?
Response: 75 nM

Request: What measured IC50 is associated with `CCCn1c(=O)ccc2cnc(Nc3cccc(I)c3)nc21` on cdk2/cyclinE (Homo sapiens)?
Response: 62.5 nM

Request: What measured IC50 is associated with `CCCn1c(=O)ccc2cnc(Nc3ccc4[nH]ccc4c3)nc21` on cdk2/cyclinE (Homo sapiens)?
Response: 86.5 nM

----------
readout: melting point

Before answering, review these 6 worked examples.
{"columns": ["compound", "test-result"],
 "data": [
  ["CCn1c(=O)ccc2cnc(NCc3ccccc3)nc21", "96 to 97 °C"],
  ["O=c1ccc2cnc(Nc3ccc(N4CCCCC4)cc3)nc2n1C1CCCCC1", "198 to 200 °C"],
  ["CC(C)n1c(=O)ccc2cnc(N)nc21", "153 °C"],
  ["O=c1ccc2cnc(Nc3ccc(N4CCCCC4)cc3)nc2n1C1CCCC1O (stereo not drawn)", "230 to 232 °C"],
  ["O=c1ccc2cnc(Nc3ccc(N4CCCCC4)cc3)nc2n1C1CCOC1 (racemic)", "181 to 182 °C"],
  ["O=c1ccc2cnc(Nc3ccc(N4CCCC(CN5CCOCC5)C4)cc3)nc2n1C1CC2CCC1C2 (stereo not drawn)", "155 to 157 °C"]
]}

Request: Consider the compound `O=c1ccc2cnc(Nc3ccc(-n4cccc4)cc3)nc2n1C1CCCC1` and give its measured melting point.
Response: 189 to 190 °C

Request: Consider the compound `O=c1ccc2cnc(Nc3ccc(F)cc3)nc2n1C1CCCCCC1` and give its measured melting point.
Response: 198 to 199 °C

Request: Consider the compound `O=c1ccc2cnc(Nc3ccc(N4CCc5ccccc5C4)cc3)nc2n1C1CCCCC1` and give its measured melting point.
Response: 185 °C
